All values here come from patent US6767991.

# Target or system: recombinant NS3 protease with the NS4A peptide cofactor … (molar ratio enzyme:cofactor 1:100) (hepatitis C virus genotype 1b)
# Method notes: cell-based or functional assay
Where no end group is shown, it is not given here. [ ]: non-standard residue; d: D form. Ac3c = NC1(C(=O)O)CC1
Endpoint name: IC50 (µM)
One number for each entry, in µM.

>>> value_reported("{(HOOC-CH2)2‑NC(O)‑CH2‑CH(cyclohexyl)‑C(O)}-Val-[Pro(4-(1-NpCH2O))]-[Ac3c] [Compound 412 (Table 4): B [HOOC-CH2]2-NC(O)-; R4 cyclohexyl; P3 Val; R13 1-NpCH2O; P1 Acca]")
0.8

Give me IC50 for each of these binders, listed below.
1. {HOOC‑CH2‑N(Me)‑C(O)‑CH2‑CH(cyclohexyl)‑C(O)}-Val-[Pro(4-(1-NpCH2O))]-[Ac3c] [Compound 409 (Table 4): B HOOC-CH2-N(Me)-C(O)-; R4 cyclohexyl; P3 Val; R13 1-NpCH2O; P1 Acca]
2. {MeOOC‑(CH2)2‑N(Me)2‑C(O)‑CH2‑CH(cyclohexyl)‑C(O)}-Val-[Pro(4-(1-NpCH2O))]-[Ac3c] [Compound 408 (Table 4): B MeOOC-(CH2)2-N(Me)2-C(O)-; R4 cyclohexyl; P3 Val; R13 1-NpCH2O; P1 Acca]
3. {EtOOC‑CH‑N(Me)2‑C(O)‑CH2‑CH(cyclohexyl)‑C(O)}-Val-[Pro(4-(1-NpCH2O))]-[Ac3c] [Compound 410 (Table 4): B EtOOC-CH-N(Me)2-C(O)-; R4 cyclohexyl; P3 Val; R13 1-NpCH2O; P1 Acca]

Result:
1: 24; 2: 11; 3: 32
